# key: entry, value: change in vivo at 6.25 mg/kg
# Test system: männlichen Ratten der Art Long Evans
# Test Details: animal or person
# Format: in vivo
# Condition Info: po, 504 h, read-out: Prozentuale Hemmung bei einer peroralen Dosis von 6,25 mg/kg
Provide the measurement as a number trailed by its unit.

INSERT INTO measurements (line_notation, target_entity, readout_name, measured) VALUES
  ('CSc1nc(-c2ccc(Cl)cc2)n(-c2cccc(C(F)(F)F)c2)n1', 'männlichen Ratten der Art Long Evans', 'change in vivo at 6.25 mg/kg', '-48%'),
  ('CSc1nc(-c2ccc(C(F)(F)F)cc2)n(-c2ccc(F)cc2)n1', 'männlichen Ratten der Art Long Evans', 'change in vivo at 6.25 mg/kg', '-25%'),
  ('CSc1nc(-c2ccc(Cl)cc2)n(-c2ccc(F)cc2)n1', 'männlichen Ratten der Art Long Evans', 'change in vivo at 6.25 mg/kg', '-68%'),
  ('Clc1ccc(-c2nc(SCc3ccccn3)nn2-c2ccc(Cl)cc2)cc1', 'männlichen Ratten der Art Long Evans', 'change in vivo at 6.25 mg/kg', '-40%'),
  ('CSc1nc(-c2ccc(F)cc2)n(-c2ccc(F)cc2)n1', 'männlichen Ratten der Art Long Evans', 'change in vivo at 6.25 mg/kg', '-57%');

Query block: For CSc1nc(-c2ccc(F)cc2)n(-c2ccc(Cl)cc2)n1 , what is its reported change in vivo at 6.25 mg/kg?
Result block: -53%

Query block: For CSc1nc(-c2ccc(F)cc2)n(-c2cccc(C(F)(F)F)c2)n1 , what is its reported change in vivo at 6.25 mg/kg?
Result block: -22%

Query block: For CSc1nc(-c2ccc(Cl)cc2)n(-c2ccc(Br)cc2)n1 , what is its reported change in vivo at 6.25 mg/kg?
Result block: -28%

Query block: For CSc1nc(-c2ccc(Cl)cc2)n(-c2ccc(Cl)cc2)n1 , what is its reported change in vivo at 6.25 mg/kg?
Result block: -55%
